Source: the supplement of paper PMC6555819

Test system: PPARg:RXRa IVT, anti-PPARg (NR concentration 270 nM, RXRa partner concentration 90 nM)
Assay: PBM binding z-score (relative to random genomic background probes); higher = stronger binding; sequences stand for … in GC…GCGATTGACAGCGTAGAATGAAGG
measureName: PBM binding z-score
Keep it simple and answer with nothing but the number.

Here is how some sequences turned out for PBM binding z-score.
{"recordSequence": "TTTATTAGTTGATTAGGGCAACCGAAACAGCGGA", "PBM binding z-score": 2.1}
{"recordSequence": "TGAAAGAGGTTATAAGATCAGGGAACGTTGCAAA", "PBM binding z-score": 0.748}
{"recordSequence": "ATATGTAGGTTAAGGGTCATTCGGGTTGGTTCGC", "PBM binding z-score": 8.1}
{"recordSequence": "CTTCAAAGTTCAAGGTAACGTAACAGAAAGCAGC", "PBM binding z-score": 1.36}
{"recordSequence": "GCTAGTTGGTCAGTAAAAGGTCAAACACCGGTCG", "PBM binding z-score": 2.62}

Fill in: PBM binding z-score of `CCAGACAGGTGAGAAGGTAACTCATCCTCGATTA` is ___
0.6

Another: `ATCTCTAGGGAACAAGTTCAGTGAAAGAGAGGAC`
0.703

Another: `AGAATGAGGTTAGTAAGATCAGGGAATTGCGGTC`
2.49

* * *

Measured PBM binding z-score, listed per entry.
Test system: PPARg homodimer (NR concentration 180 nM)
Test: PBM binding z-score (relative to random genomic background probes); higher = stronger binding; sequences stand for … in GC…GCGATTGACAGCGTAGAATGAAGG
Keep it simple and answer with nothing but the number.

Here is how some sequences turned out for PBM binding z-score.
{"recordSequence": "GCGCCTGGGGCAAAGCAGGTTACCATAAGGTTGG", "PBM binding z-score": -0.5}
{"recordSequence": "CTTGAAAGGTCGGTTGAGGTGAGTATACGGATAA", "PBM binding z-score": 0.811}
{"recordSequence": "GCAGACAGGTGAAACGCAGGTAACTCTGGGTGGC", "PBM binding z-score": -0.859}
{"recordSequence": "TCTTGTACATCAATAGAGGTTAAGAAAGTGCGCT", "PBM binding z-score": 0.454}

Notebook: pull reported PBM binding z-score for PPARg homodimer (NR concentration 180 nM), entry `CCTAGCAGGCCAATCTGGCTCACTCAAGGCTTGA`
-0.294

Another: `CGTACAAGGTCAAGGTCAGTGAAAGAGACTCGAA`
4.4

Another: `TGTGAAAGTTCAAAGGTAACGTAAGTATCCACAC`
2.73

Another: `CCGAGTAGGTTATGGGGCATTCACGCAACGGTGA`
1.81

Another: `ATCTCTAGGTAAAGTTCCGTGAAAGATCGATAGA`
0.653

Another: `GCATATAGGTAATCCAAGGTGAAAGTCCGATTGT`
1.03

Another: `ATATGTAGGTTAGCTGGGGCCATTCAGACTAGGC`
1.13

Another: `ACAGACAGGTGATGAAGGTACCTCAGGCTATCAT`
-0.0635

Another: `TCTTGTAGATCAATAGAGGTTAGGAAAGTGCGCT`
0.823

Another: `CCTACTGGGCCAATCAGAGGTCATTGATCATATG`
4.19

Another: `CAAACTAGGTCAAGAGGTCAAAGTGCGCTTCCCG`
5.5

Another: `TAGCCTAGGTCCTGGGCCAGTATACCACGCGAAC`
-1.29

Another: `CCAGACAGGTGAGAAGGCAACTCAGCCTCGATTA`
0.166

* * *

System: PPARg:RXRa 30nM:10nM, anti-RXR (NR concentration 30 nM, RXRa partner concentration 10 nM)
Assay: PBM binding z-score (relative to random genomic background probes); higher = stronger binding; sequences stand for … in GC…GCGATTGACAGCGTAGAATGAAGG
Reported PBM binding z-score maps to class as: low (below 0.3), middle (0.3 to below 2), high (2 or more)

Would you mind sorting `CGCCAAAGTTCAACTAAGGTAACGTAAAGCACGC` into the appropriate category?
middle

Another: `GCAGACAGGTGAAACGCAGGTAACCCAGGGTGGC`
low

* * *

Measured PBM binding z-score, listed per entry.
Tested on: PPARa:RXRa (NR concentration 270 nM, RXRa partner concentration 90 nM)
Assay: PBM binding z-score (relative to random genomic background probes); higher = stronger binding; sequences stand for … in GC…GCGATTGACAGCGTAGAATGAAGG
Keep it simple and answer with nothing but the number.

Here is how some sequences turned out for PBM binding z-score.
{"recordSequence": "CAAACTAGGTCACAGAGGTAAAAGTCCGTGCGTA", "PBM binding z-score": 5.38}
{"recordSequence": "ATATGTAGGTTATCGGGTCATTCAGTTTGCGCAT", "PBM binding z-score": 4.62}
{"recordSequence": "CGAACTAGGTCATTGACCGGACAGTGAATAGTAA", "PBM binding z-score": 4.46}

Fill in: PBM binding z-score of `TAGCCTAGGTCATTCAGGGGCCATTATAGAAAGC` is ___
3.96

Another: `GGAACGAGGGCAAAGTTGACAGCATCTGTCGACG`
4.78

Another: `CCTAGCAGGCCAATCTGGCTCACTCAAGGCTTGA`
-0.434

* * *

Test system: PPARg:RXRa 90nM:30nM, anti-RXR (NR concentration 90 nM, RXRa partner concentration 30 nM)
Experiment: PBM binding z-score (relative to random genomic background probes); higher = stronger binding; sequences stand for … in GC…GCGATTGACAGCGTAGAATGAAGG
measureName: PBM binding z-score
Keep it simple and answer with nothing but the number.

{"recordSequence": "CGTCCAAGGTGATAGGAGGTCAGTGAAGACAGAT", "observedValue": 0.512}
{"recordSequence": "GCGACTGGGGCAAAGCAGGTTACAATAAGGTTGG", "observedValue": 0.898}
{"recordSequence": "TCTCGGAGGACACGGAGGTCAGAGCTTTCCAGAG", "observedValue": 1.75}
{"recordSequence": "ATCTCTAGGTAACGTTCAGTGAAAGATCGATAGA", "observedValue": 0.669}
{"recordSequence": "CGAACTAGGCCATCCAGGACAGTGAATACATTGA", "observedValue": 1.19}
{"recordSequence": "TCATATAGGTAAAGGAGAAAGTCGAACGATATGA", "observedValue": 3.22}
{"recordSequence": "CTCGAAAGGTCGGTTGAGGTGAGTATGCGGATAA", "observedValue": 0.771}
{"recordSequence": "ATATGTAGGTTACATCCGGCTCATTCAGGCTATG", "observedValue": 3.14}

Notebook: pull reported PBM binding z-score for PPARg:RXRa 90nM:30nM, anti-RXR (NR concentration 90 nM, RXRa partner concentration 30 nM), entry `CCTAGTTGGTCCAGGTCACACACGCTATAGGTAC`
1.01

Another: `TCTAATTGGTCAAAGGTCACACACTCGAAATGCG`
12

Another: `ATCTCTAGGTACGACTCAGTTCAGTGAAGAACGC`
-0.098

Another: `AGTCGAAGTTCATCTAGGTAACGTAAGATATGCT`
1.66

Another: `TCATATAGGTAAAAGCTGAAAGTCGGTGTGGTAA`
3.25

Another: `CCTAGCAGGCCAGGGACACTCAAGCATTTCGCTT`
-0.701

Another: `TGAATGAGGTTAAAGATCAGGCAACGTGGCGTCG`
6.3

Another: `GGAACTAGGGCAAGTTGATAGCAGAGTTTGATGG`
2.57

Another: `ACTCGGAGGACAAAGGTCGGAGCTACGCCAGTGA`
5.62

Another: `ATCTCTAGATAAAGTTCAGTGAAAGATCGATAGA`
3.1

Another: `TCTTCTAGATCAAAGGTTAAGAAAGCCGAAGCCT`
8.51

Another: `TCAGACAGGCGAAGGTAACTCAGGTACGCAGTCG`
2.41

* * *

Test system: RARg:RXRa (NR concentration 270 nM, RXRa partner concentration 90 nM)
Experiment: PBM binding z-score (relative to random genomic background probes); higher = stronger binding; sequences stand for … in GC…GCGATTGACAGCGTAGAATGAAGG
measureName: PBM binding z-score

{"recordSequence": "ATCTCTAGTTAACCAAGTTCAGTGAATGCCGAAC", "PBM binding z-score": 0.578}
{"recordSequence": "GCTAGCAGGCCATTTGGGTCACTCCATGACGGGC", "PBM binding z-score": 0.733}
{"recordSequence": "ATCTCTAGGTACCAAGTTCAGTGAAAGAGAGGAC", "PBM binding z-score": 0.686}
{"recordSequence": "TCTATTAGTTGATTAGGGCCACCGAAACAGCGGA", "PBM binding z-score": 0.31}
{"recordSequence": "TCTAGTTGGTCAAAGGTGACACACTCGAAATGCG", "PBM binding z-score": 2.9}
{"recordSequence": "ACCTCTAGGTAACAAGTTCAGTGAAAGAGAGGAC", "PBM binding z-score": 1.11}
{"recordSequence": "TCGAGTAGGTTATTCGGGGCATTCAGCCAACATA", "PBM binding z-score": 0.44}
{"recordSequence": "CCTGCTAGGTCATGGTCAGCCAATCTACAGTATG", "PBM binding z-score": 3.98}
{"recordSequence": "AGCATGAGGTTATTAAGATCAGGGAATTGCGGTC", "PBM binding z-score": 1.38}
{"recordSequence": "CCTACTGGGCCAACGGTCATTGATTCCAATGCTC", "PBM binding z-score": 0.293}

Fill in: PBM binding z-score of `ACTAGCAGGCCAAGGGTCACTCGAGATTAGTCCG` is ___
3.93

Another: `GGAACGAGGGCAAGCTGATAGCAGAGTTTGATGG`
1.17
